- assay_notes: self-splicing fitness, log relative to wild type (ln ratio); higher = more splicing; Tetrahymena group I intron in knt gene, E. coli kanamycin selection, DiMSum; sequences stand for … in CUCUCU…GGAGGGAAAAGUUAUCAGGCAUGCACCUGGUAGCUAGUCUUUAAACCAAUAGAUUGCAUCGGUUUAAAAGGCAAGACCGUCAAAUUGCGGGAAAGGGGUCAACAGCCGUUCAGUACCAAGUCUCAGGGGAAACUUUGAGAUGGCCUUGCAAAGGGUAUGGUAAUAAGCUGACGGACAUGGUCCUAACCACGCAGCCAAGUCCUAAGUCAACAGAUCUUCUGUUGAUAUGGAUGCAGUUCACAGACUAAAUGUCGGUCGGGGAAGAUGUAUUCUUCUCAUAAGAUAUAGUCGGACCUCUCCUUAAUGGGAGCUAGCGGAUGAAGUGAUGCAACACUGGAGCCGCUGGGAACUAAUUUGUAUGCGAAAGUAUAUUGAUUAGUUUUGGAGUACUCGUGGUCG;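 also: selection with 25 µg/mL kanamycin versus none on LB agar overnight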
- test_context: 37 °C
assay_readout: self-splicing fitness (ln)

Q) Item UGCGAGCAAUAUUACGGAUA has what recorded self-splicing fitness (ln)?
A) -2.08

Q) Item UACUAGCAAUAUUACGCAGU has what recorded self-splicing fitness (ln)?
A) -3.09

Q) Item AACAAGCAAUAUUACGAUAG has what recorded self-splicing fitness (ln)?
A) -2.24

Q) Item GAUAAGCAAUAUUACGCGUG has what recorded self-splicing fitness (ln)?
A) -0.471

Q) Item CCCAAGCAAUAUUACGCCUC has what recorded self-splicing fitness (ln)?
A) -2.93

Q) Item AUCAAGCAAUAUUACGCAUU has what recorded self-splicing fitness (ln)?
A) -1.69

Q) Item GGCGAGCAAUAUUACGGAGU has what recorded self-splicing fitness (ln)?
A) -1.68

Q) Item UCGGAGCAAUAUUACGGUAA has what recorded self-splicing fitness (ln)?
A) -1.68

Q) Item UGGAAGCAAUAUUACGAGGU has what recorded self-splicing fitness (ln)?
A) -2.08

Q) Item UAUCAGCAAUAUUACGUUCA has what recorded self-splicing fitness (ln)?
A) 0.345

Q) Item UGUCAGCAAUAUUACGUCGG has what recorded self-splicing fitness (ln)?
A) -0.266

Q) Item CUCAAGCAAUAUUACGAAAU has what recorded self-splicing fitness (ln)?
A) -2.14

Q) Item CAUUAGCAAUAUUACGGUCU has what recorded self-splicing fitness (ln)?
A) -2.22

Q) Item GAUUAGCAAUAUUACGGGAA has what recorded self-splicing fitness (ln)?
A) -3.27

Q) Item ACUCAGCAAUAUUACGACGU has what recorded self-splicing fitness (ln)?
A) 0.168

Q) Item GACAAGCAAUAUUACGCGUA has what recorded self-splicing fitness (ln)?
A) -0.683

Q) Item UCAGAGCAAUAUUACGUUGC has what recorded self-splicing fitness (ln)?
A) -1.48

Q) Item CCGCAGCAAUAUUACGUUAG has what recorded self-splicing fitness (ln)?
A) -0.553

Q) Item GCAUAGCAAUAUUACGAUUA has what recorded self-splicing fitness (ln)?
A) 0.017

Q) Item UAUCAGCAAUAUUACGUUCG has what recorded self-splicing fitness (ln)?
A) 0.113

Q) Item AUUUAGCAAUAUUACGCGUG has what recorded self-splicing fitness (ln)?
A) -0.97

Q) Item UAGUAGCAAUAUUACGACUU has what recorded self-splicing fitness (ln)?
A) -0.285

Q) Item AAGCAGCAAUAUUACGUAGG has what recorded self-splicing fitness (ln)?
A) -1.96

Q) Item AUAUAGCAAUAUUACGCGUG has what recorded self-splicing fitness (ln)?
A) -0.528

Q) Item UCCCAGCAAUAUUACGUGGC has what recorded self-splicing fitness (ln)?
A) -2.92

Q) Item GUCAAGCAAUAUUACGUCCU has what recorded self-splicing fitness (ln)?
A) -1.04

Q) Item GACGAGCAAUAUUACGUCGC has what recorded self-splicing fitness (ln)?
A) -0.634

Q) Item AGCCAGCAAUAUUACGCACA has what recorded self-splicing fitness (ln)?
A) -0.518

Q) Item CUGUAGCAAUAUUACGGGUU has what recorded self-splicing fitness (ln)?
A) -3.13

Q) Item CAACAGCAAUAUUACGAUAC has what recorded self-splicing fitness (ln)?
A) -2.91

Q) Item UCCUAGCAAUAUUACGUCGC has what recorded self-splicing fitness (ln)?
A) -2.58

Q) Item UCGCAGCAAUAUUACGGGUG has what recorded self-splicing fitness (ln)?
A) -1.03

Q) Item UGCAAGCAAUAUUACGAUUA has what recorded self-splicing fitness (ln)?
A) 0.163

Q) Item AACAAGCAAUAUUACGGUAC has what recorded self-splicing fitness (ln)?
A) -1.99

Q) Item AGUAAGCAAUAUUACGCUAA has what recorded self-splicing fitness (ln)?
A) -2.3

Q) Item CAGUAGCAAUAUUACGUGGG has what recorded self-splicing fitness (ln)?
A) -1.92

Q) Item GGAAAGCAAUAUUACGAAUA has what recorded self-splicing fitness (ln)?
A) -1.19

Q) Item GCUCAGCAAUAUUACGCGCG has what recorded self-splicing fitness (ln)?
A) -0.194

Q) Item GGUGAGCAAUAUUACGCUUU has what recorded self-splicing fitness (ln)?
A) -3.04

Q) Item CGCGAGCAAUAUUACGGAGA has what recorded self-splicing fitness (ln)?
A) -2.3

Q) Item CAUAAGCAAUAUUACGUGAC has what recorded self-splicing fitness (ln)?
A) -2.03

Q) Item CGCCAGCAAUAUUACGUAAU has what recorded self-splicing fitness (ln)?
A) -1.71

Q) Item CUUAAGCAAUAUUACGCUGG has what recorded self-splicing fitness (ln)?
A) -2.64

Q) Item CCCAAGCAAUAUUACGUGCC has what recorded self-splicing fitness (ln)?
A) -2.97

Q) Item UUUAAGCAAUAUUACGAAGU has what recorded self-splicing fitness (ln)?
A) -1.62

Q) Item CCAAAGCAAUAUUACGUAAC has what recorded self-splicing fitness (ln)?
A) -2.72

Q) Item UGCUAGCAAUAUUACGGUCC has what recorded self-splicing fitness (ln)?
A) 0.11

Q) Item CAGUAGCAAUAUUACGAAUA has what recorded self-splicing fitness (ln)?
A) -1.71

Q) Item ACUAAGCAAUAUUACGCAUA has what recorded self-splicing fitness (ln)?
A) -2.14

Q) Item CUGCAGCAAUAUUACGUUAG has what recorded self-splicing fitness (ln)?
A) -1.19

Q) Item GGUGAGCAAUAUUACGGUUG has what recorded self-splicing fitness (ln)?
A) -2.36

Q) Item UCUGAGCAAUAUUACGCUGU has what recorded self-splicing fitness (ln)?
A) -1.07

Q) Item UAGAAGCAAUAUUACGGGUG has what recorded self-splicing fitness (ln)?
A) -0.365

Q) Item UCAAAGCAAUAUUACGCAGU has what recorded self-splicing fitness (ln)?
A) -3.42

Q) Item UGCAAGCAAUAUUACGGUCC has what recorded self-splicing fitness (ln)?
A) -1.16

Q) Item AUAGAGCAAUAUUACGCAGG has what recorded self-splicing fitness (ln)?
A) -1.86

Q) Item UCUGAGCAAUAUUACGGCGC has what recorded self-splicing fitness (ln)?
A) -2.02

Q) Item GCAAAGCAAUAUUACGUCUU has what recorded self-splicing fitness (ln)?
A) -1.11

Q) Item GUGGAGCAAUAUUACGCGUA has what recorded self-splicing fitness (ln)?
A) -0.34

Q) Item GGACAGCAAUAUUACGUAAU has what recorded self-splicing fitness (ln)?
A) -0.0127
